# tgt: RBDSARS-CoV (SARS-CoV S protein residues 318-510, C-terminal His-tag) (SARS-CoV, UniProt P59594 318-510)
# assay remarks: ELISA
pIC50: −log10 of the molar value.
recorded endpoint: pIC50

4P-32 (VHH) VHH: DVQLVESGGGLVQAGGSLRLTCAASGRTFSSDTMDMGWFRQAPGKERQFVAADAWNDGRTYYADSVKGRFTISRDNAKNTLYLQMNSLKPEDTAVYYCAADTYSNYEKDYSWGYWGQGTQVTVSS = 5.10 to 6.00
5p-167 (VHH) VHH: QVQLVESGGGLVQAGGSLRLLCVASGSIDSINAMGWFRQAPGKQRELVASISNMHTTMYAESVKGRFTISRDNAKNTADLQMNSLKPEDTAIYFCNLRQRCSYNGCDEYWGQGTQVTVSS = < 5.10
4P-12 (VHH) VHH: DVQLVESGGGLVQAGGSLRLSCAASGRTFSSYTMGWFRQAPGKEREFVAVISSGRSTDYADSVKGRFTISRDNAKNTVYLQMNSLKPEDTAVYYCAADQAPLRFSYSLSRDEYDYWGQGTQVTVSS = 7.00 to 8.00

Here is another binder to look at.
Reported pIC50 ( 4P-9 (VHH) VHH: QVQLVESGGGLVQAGDSLRLSCTASGRTFSAYGMGWFRQAPGKEREFVAGIARSGSEYYGDSVKGRFTISRDNAKNTVYLQMASLKAEDTGVYYCAADPTILYHAISQRTQNYRHWGPGTQVTVSS ) = 6.00 to 7.00
